Tested on: PGE2 secreted by synoviocyte
Assay: Content of PGE2 in culture supernatant of synoviocyte of RA model rats given test compound
Type: in vivo
Settings: rat RA model, dose 30 mg/kg.2d; normal control 8.34 ± 1.29, NaCl 32.44 ± 10.32
From the text: Take Compound 1-50 prepared as per the method according to the present invention and employ the method provided in Reference to prepare model, group drugs and prepare culture supernatant of rat synoviocyte. Employ the method provided in Reference to investigate the effects of the test compounds on the synoviocyte to secrete TNF-α and PGE2. Employ the method provided in Reference to investigate the effects of the test compounds on the synoviocyte to secrete IL-1β. […]
Quantity: Content of PGE2 in culture supernatant of synoviocyte (x ± s) (ng/mL)
// units = ng/mL; emit number, no label

Examples with their reported Content of PGE2 in culture supernatant of synoviocyte (x ± s) follow.
| Compound | Tested on | Reported |
| --- | --- | --- |
| COC(=O)c1cn(C[C@@H]2C(=O)O[C@H]3[C@H]2CCC2(CC2)[C@@H]2CCC4(CC4)[C@H]32)nn1 [Compound 44] | PGE2 secreted by synoviocyte | 22.14 |
| C#CCCCC(=O)O[C@]1(C)CCC2=C(C)CC[C@H]3C(=C)C(=O)O[C@@H]3[C@H]21 [Compound 19] | PGE2 secreted by synoviocyte | 26.45 |
| C=C1CC[C@H]2C(=C)CC[C@H]3C(=C)C(=O)O[C@@H]3[C@@H]12 [Compound 25] | PGE2 secreted by synoviocyte | 26.48 |
| C=C1C(=O)O[C@@H]2[C@@H]3[C@@H](CC[C@@]3(C)O)[C@](C)(O)CC[C@@H]12 [Compound 49] | PGE2 secreted by synoviocyte | 24.25 |
| C=C1C(=O)OC2C1CCC(C)=C1CCC(C)(OC(=O)CCl)C12 (stereo not drawn) [Compound 9] | PGE2 secreted by synoviocyte | 27.92 |

q: Need Content of PGE2 in culture supernatant of synoviocyte (x ± s) of COC[C@@H]1C(=O)O[C@H]2[C@H]1CCC1(CC1)[C@@H]1CCC3(CC3)[C@H]21 [Compound 30] , thanks.
a: 25.37

---

System: cancer stem cells
Test: Survival rate of cancer stem cells after test compound is added (flow cytometry, Annexin V-FITC/PI, clinical specimen)
Type: cell-based, patient
Conditions: Homo sapiens, 18 h, Ovarian cancer; 20.0 μM
Quantity: viability at 20 µM (%)
The response must be a number in % with no trailing unit.

| Compound | Reported |
| --- | --- |
| CN(C)C[C@@H]1C(=O)O[C@H]2[C@H]1CCC1(CC1)[C@@H]1CCC3(CC3)[C@H]21 | 77 |

q: Return viability at 20 µM measured with cancer stem cells given this compound: `C=C1C(=O)O[C@H]2[C@H]1CCC(C)=C1CC[C@@](C)(OC(=O)CCCc3cn(CCCCCCO)nn3)[C@@H]12`
a: 49

q: Moving on to the next compound: C=C1C(=O)O[C@H]2[C@H]1CC[C@@](C)(OC)C1CC[C@@](C)(O)[C@@H]12 (stereo partly drawn)
a: 78

---

Collected viability at 10 µM values appear next to each entry.
Tested on: cancer stem cells
Experiment: Survival rate of cancer stem cells after test compound is added (flow cytometry, Annexin V-FITC/PI, clinical specimen)
Format: cell-based, patient
Details: Homo sapiens, 18 h, Malignant melanoma; 10.0 μM
Number in %, nothing else.

Study these solved cases before continuing.
| Compound | Units of measure | viability at 10 µM |
| --- | --- | --- |
| C=C1C(=O)O[C@H]2[C@H]1CC[C@@](C)(OC)C1CC[C@@](C)(O)[C@@H]12 (stereo partly shown) [Compound 47] | % | 82 |
| CC1=C2CC[C@@](C)(O)[C@@H]2[C@H]2OC(=O)[C@@H](CN(C)C)[C@@H]2CC1 [Compound 23] | % | 82 |
| CCOC(=O)[C@@H]1CCCN1C[C@@H]1C(=O)O[C@H]2[C@H]1CCC1(CC1)[C@@H]1CCC3(CC3)[C@H]21 [Compound 29] | % | 82 |

Switching to the query record.
q: Which value of viability at 10 µM has been reported for C=C1C(=O)O[C@H]2[C@H]1CC[C@]1(C)O[C@@]13CC[C@@](C)(O)[C@H]23 [Compound 24] in the records?
a: 81
